# TARGET_OF_ASSAY: Thromboxane-A synthase (Oryctolagus cuniculus)
# PROCEDURE_SUMMARY: Inhibitory activity against Thromboxane synthetase
Item-by-item account of IC50

Solved cases below.
{"MOLECULAR_STRING": "O=C(O)CCCCCCc1ccncc1", "TARGET_OF_ASSAY": "Thromboxane-A synthase (Oryctolagus cuniculus)", "READOUT_KIND": "IC50", "REPORTED_RESULT": "> 1000 nM"}
{"MOLECULAR_STRING": "C/C(=C\\c1ccc(Cc2ccncc2)cc1)C(=O)O", "TARGET_OF_ASSAY": "Thromboxane-A synthase (Oryctolagus cuniculus)", "READOUT_KIND": "IC50", "REPORTED_RESULT": "> 1000 nM"}
{"MOLECULAR_STRING": "O=C(O)CCCCCc1ccncc1", "TARGET_OF_ASSAY": "Thromboxane-A synthase (Oryctolagus cuniculus)", "READOUT_KIND": "IC50", "REPORTED_RESULT": "> 1000 nM"}
{"MOLECULAR_STRING": "O=C(O)CCCCCn1ccnc1", "TARGET_OF_ASSAY": "Thromboxane-A synthase (Oryctolagus cuniculus)", "READOUT_KIND": "IC50", "REPORTED_RESULT": "> 1000 nM"}
{"MOLECULAR_STRING": "O=C(O)CCCCCCCc1ccncc1", "TARGET_OF_ASSAY": "Thromboxane-A synthase (Oryctolagus cuniculus)", "READOUT_KIND": "IC50", "REPORTED_RESULT": "> 1000 nM"}

Look at this compound and give its reported IC50. O=C(O)CCCCn1ccnc1
> 1000 nM

IC50 for O=C(O)CCCCc1ccncc1 ?
> 1000 nM
